Some sequences, each annotated with its measured phosphorylation enrichment.
molecular target: Hck (UniProt P08631); assay: phosphorylation enrichment, bacterial display (enrichment ratio); higher = better substrate or ligand; peptides without Tyr show the background
Sequence (P08631 whole entry, looked up): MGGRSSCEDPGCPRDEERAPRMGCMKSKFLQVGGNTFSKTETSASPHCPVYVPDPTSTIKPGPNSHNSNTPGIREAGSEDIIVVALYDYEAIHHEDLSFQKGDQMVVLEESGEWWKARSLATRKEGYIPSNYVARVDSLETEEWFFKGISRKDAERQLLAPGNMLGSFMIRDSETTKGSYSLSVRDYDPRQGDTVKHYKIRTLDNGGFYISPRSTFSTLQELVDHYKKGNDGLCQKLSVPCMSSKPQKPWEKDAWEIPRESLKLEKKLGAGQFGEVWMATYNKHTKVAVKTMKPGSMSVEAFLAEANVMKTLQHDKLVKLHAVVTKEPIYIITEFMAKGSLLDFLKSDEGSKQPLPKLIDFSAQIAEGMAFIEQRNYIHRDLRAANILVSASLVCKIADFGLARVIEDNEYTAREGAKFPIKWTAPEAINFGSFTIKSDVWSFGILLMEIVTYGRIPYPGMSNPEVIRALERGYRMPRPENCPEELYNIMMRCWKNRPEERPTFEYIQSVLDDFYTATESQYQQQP
Reply with the value as a number alone.

Record excerpt, results attached:
Entry VDDQIYFFRKP [PBRM1_Y1289_E1287Q_YF] : reported phosphorylation enrichment = ?
5.8

May I ask what phosphorylation enrichment has been recorded for RRFSSYSQMEN [PKP1_Y120] ?
0.896

Request the reported phosphorylation enrichment associated with NQKGKYFNVER [ANAPC4_Y469_R465Q]
0.449

# query: phosphorylation enrichment of entry DLRGIYQKLVI
6.68

---
# lookup: phosphorylation enrichment of EFISESCGEII [EZH2_Y641_Y641S]
0.476

Look up phosphorylation enrichment for this sequence: IHADIYRWFNI [MARS1_Y344]
2.14

Suppose we examine the sequence RMDGKYACSFT [FLNB_Y704_T703K_YF] ; what phosphorylation enrichment value has been reported?
0.964

----------
biological target: c-Src SH2; assay: SH2 binding enrichment of the phosphorylated peptide, bacterial display (enrichment ratio); higher = better substrate or ligand; peptides without Tyr show the background
measurement.kind: SH2 binding enrichment
Provide a numeric answer; units are not to be included.

Look up SH2 binding enrichment for this sequence: KDQGTYEDFVE [MYL6_Y86_YF]
1.46

Which SH2 binding enrichment reading was recorded for the sequence TSSAIYMNLAS [GATAD2B_Y317] ?
1.4

Which SH2 binding enrichment value is on record for TARREYMHSPS [CPOX_Y429_W427R] ?
0.647

Next:
State the recorded SH2 binding enrichment for this entry: DLGIQYKVLKP [CTNNA1_Y177_A179V]
0.411

----------
biological target: Grb2 SH2 (UniProt P62993); assay: SH2 binding enrichment of the phosphorylated peptide, bacterial display (enrichment ratio); higher = better substrate or ligand; peptides without Tyr show the background
Sequence (P62993 whole entry, looked up): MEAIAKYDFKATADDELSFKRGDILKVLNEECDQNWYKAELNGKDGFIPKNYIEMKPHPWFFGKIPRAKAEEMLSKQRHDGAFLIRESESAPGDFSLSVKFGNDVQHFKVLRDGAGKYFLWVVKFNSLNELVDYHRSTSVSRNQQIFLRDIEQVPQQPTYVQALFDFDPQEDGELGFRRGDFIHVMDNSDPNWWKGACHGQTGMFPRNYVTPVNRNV
measurement.kind: SH2 binding enrichment
I'd appreciate a reply containing only the number, no unit.

Bench note: what SH2 binding enrichment did EFISESCGEII [EZH2_Y641_Y641S] show?
1

Fill in the blank: the reported SH2 binding enrichment of GDEEDYEEIPG [EGFR_opt_E_2015] is ____.
0.993

Item VAFLFYKSIGP [ADGRL4_Y302_V300L_YF] has what recorded SH2 binding enrichment?
0.542

GET /values?readout=SH2 binding enrichment&item= DRLTVYIDRVR [LMNA_Y45_A43T]
0.953

Which SH2 binding enrichment is listed for RLLVVYHWTQR [HBD_Y36_P37H] ?
1.49

// SH2 binding enrichment lookup, key: VDEERYDIEAK [TNNI3_Y112]
0.852

// SH2 binding enrichment lookup, key: NFHRGYHLQVL [CD200R1L_Y138]
0.963

Which value of SH2 binding enrichment has been reported for VKFLGYPPPEI [KDR_Y357_A352V_YF] in the records?
0.809

Recorded SH2 binding enrichment for VAVVQYSGTGQ [COL6A1_Y878] , please?
0.767

For the sequence shown here, NTYEKYWPFYQ [GATM_Y103] , give the reported SH2 binding enrichment.
1.14

Continuing:
Dear colleague, I am looking for the recorded SH2 binding enrichment of the following sequence: GFDHSYFFIAT [ESD_Y262_YF]
0.813

Which SH2 binding enrichment reading was recorded for the sequence EKKDIYKAGEQ [CFH_Y1008_V1007I] ?
0.826

Entry under review: RLGDLYEEEMR [VIM_Y150] . Reported SH2 binding enrichment?
0.876

Requested field: SH2 binding enrichment. Item: NAPNSYGRRPI [CDKN2A_Y44]
0.726

So what does the record say about SH2 binding enrichment for KGKLIYLLGDS [NXPE1_Y350] ?
1.2

Item under review: TGEKPYECVQC [ZNF24_Y335] . Reported SH2 binding enrichment?
0.81

Data request, read-out SH2 binding enrichment, for IDDNQYAFLKA [HNF4A_Y286_E285Q_YF]
0.677

// SH2 binding enrichment lookup, key: WEQELYSQLVF [WAS_Y102_YF]
0.876

Need SH2 binding enrichment, item KTGNIYRTEFG [MRPL3_Y265_M261T_YF]
1.15

The measurements presented in this section are drawn from the supplement of paper PMC10065799.
